The following binders are listed with their measured pEC50 values.
Biological target: T1, human C-MET on stably transfected CHO-K1 cells (human, UniProt P08581 25-1390)
T1 construct: also called hucMET; human C-MET+ CHO-K1 cells
T1 sequence (P08581 25-1390 limits assumed): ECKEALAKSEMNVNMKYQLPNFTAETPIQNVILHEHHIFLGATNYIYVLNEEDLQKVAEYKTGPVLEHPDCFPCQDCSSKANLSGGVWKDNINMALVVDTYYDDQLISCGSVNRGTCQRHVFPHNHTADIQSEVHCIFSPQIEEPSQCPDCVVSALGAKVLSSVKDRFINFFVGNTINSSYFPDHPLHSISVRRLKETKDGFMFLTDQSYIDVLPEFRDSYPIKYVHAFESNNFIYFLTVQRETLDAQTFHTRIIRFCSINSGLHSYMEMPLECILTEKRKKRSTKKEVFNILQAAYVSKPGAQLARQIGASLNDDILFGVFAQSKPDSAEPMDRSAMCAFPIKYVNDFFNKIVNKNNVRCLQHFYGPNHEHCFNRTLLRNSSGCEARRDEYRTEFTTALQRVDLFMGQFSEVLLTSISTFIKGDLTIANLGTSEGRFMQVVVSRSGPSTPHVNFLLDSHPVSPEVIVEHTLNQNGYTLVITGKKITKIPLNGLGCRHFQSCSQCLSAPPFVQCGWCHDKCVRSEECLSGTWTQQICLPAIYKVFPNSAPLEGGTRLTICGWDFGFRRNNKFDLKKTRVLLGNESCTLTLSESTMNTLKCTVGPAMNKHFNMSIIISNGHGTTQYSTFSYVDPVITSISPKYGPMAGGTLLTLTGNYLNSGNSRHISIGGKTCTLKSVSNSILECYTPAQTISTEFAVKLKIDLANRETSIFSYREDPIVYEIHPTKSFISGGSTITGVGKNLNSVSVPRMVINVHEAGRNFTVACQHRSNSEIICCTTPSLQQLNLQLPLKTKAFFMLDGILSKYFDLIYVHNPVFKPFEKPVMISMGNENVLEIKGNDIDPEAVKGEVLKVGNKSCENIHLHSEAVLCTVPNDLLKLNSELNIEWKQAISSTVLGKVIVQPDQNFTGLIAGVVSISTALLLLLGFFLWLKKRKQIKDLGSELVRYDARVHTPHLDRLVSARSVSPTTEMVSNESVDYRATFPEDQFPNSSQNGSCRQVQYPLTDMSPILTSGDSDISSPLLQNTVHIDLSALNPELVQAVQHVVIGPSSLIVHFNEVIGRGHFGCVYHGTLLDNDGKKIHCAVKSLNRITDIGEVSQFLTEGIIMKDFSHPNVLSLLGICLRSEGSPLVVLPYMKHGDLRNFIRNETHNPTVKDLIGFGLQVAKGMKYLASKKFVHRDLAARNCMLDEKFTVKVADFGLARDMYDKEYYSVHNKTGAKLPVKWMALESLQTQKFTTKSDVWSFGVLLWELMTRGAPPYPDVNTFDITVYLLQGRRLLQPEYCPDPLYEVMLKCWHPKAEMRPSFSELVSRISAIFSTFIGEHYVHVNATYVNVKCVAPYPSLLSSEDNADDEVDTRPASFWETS
Test: flow cytometry, C-MET CHO-K1 cells
// pEC50 is dimensionless: -log10 of concentration (M)

# example entries with known answers
Task: State its pEC50: MH6 (antibody, IgG4, V domains shown) VH: QVQLVQSGAEVKKPGASVKVSCKASGYTFTSYTMHWVRQAPGQGLEWMGWINPSGGSTSYAQKFQGRVTMTRDTSTSTVYMELSSLRSEDTAVYYCARQEITTEFDYWGQGTLVTVSS VL: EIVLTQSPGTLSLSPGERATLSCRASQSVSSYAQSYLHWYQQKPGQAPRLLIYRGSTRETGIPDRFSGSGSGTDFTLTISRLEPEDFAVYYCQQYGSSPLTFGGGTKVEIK
Result: 8.88

Task: State its pEC50: MH11 (antibody, IgG4, V domains shown) VH: QVQLVQSGAEVKKPGASVKVSCKASGYTFTSYAMHWVRQAPGQGLEWMGWINPSGGSTSYAQKFQGRVTMTRDTSTSTVYMELSSLRSEDTAVYYCARQEITTEFDYWGQGTLVTVSS VL: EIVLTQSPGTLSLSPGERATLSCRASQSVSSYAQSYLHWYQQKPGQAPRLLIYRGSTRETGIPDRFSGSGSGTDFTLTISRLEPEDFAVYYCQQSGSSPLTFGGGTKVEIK
Result: 8.77

Continue with the binder presented below.
Task: State its pEC50: MH3 (antibody, IgG4, V domains shown, also called MH03) VH: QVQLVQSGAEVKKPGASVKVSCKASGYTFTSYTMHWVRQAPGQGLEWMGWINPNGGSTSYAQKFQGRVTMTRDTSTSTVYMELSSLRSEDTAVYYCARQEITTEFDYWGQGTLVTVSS VL: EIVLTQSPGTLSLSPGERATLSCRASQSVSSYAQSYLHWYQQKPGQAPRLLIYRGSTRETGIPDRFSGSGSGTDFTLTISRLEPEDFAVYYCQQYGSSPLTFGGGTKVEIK
Result: 8.78
